- recorded.conditions: in dichloromethane, 288.15 K
metric.name: solubility (mole fraction)

{"columns": ["structure.smiles.string", "assay.result"],
 "data": [
  ["CNC(=O)c1cc(Oc2ccc(N)cc2)ccn1", 0.0139]
]}

###

- recorded.conditions: in acetylacetone, 318.15 K
metric.name: solubility (mole fraction)

{"columns": ["structure.smiles.string", "metric.name", "assay.result"],
 "data": [
  ["CNC(=O)c1cc(Oc2ccc(N)cc2)ccn1", "solubility (mole fraction)", 0.048]
]}

###

- recorded.conditions: in acetylacetone, 298.15 K
metric.name: solubility (mole fraction)

{"columns": ["structure.smiles.string", "metric.name", "assay.result"],
 "data": [
  ["CNC(=O)c1cc(Oc2ccc(N)cc2)ccn1", "solubility (mole fraction)", 0.0285]
]}

###

- recorded.conditions: in methanol, 303.15 K

{"columns": ["structure.smiles.string", "solubility (mole fraction)"],
 "data": [
  ["CNC(=O)c1cc(Oc2ccc(N)cc2)ccn1", 0.0378]
]}

###

- recorded.conditions: in acetylacetone, 313.15 K
metric.name: solubility (mole fraction)

{"columns": ["structure.smiles.string", "assay.result"],
 "data": [
  ["CNC(=O)c1cc(Oc2ccc(N)cc2)ccn1", 0.042]
]}

###

- recorded.conditions: in water, 278.15 K
metric.name: solubility (mole fraction)

{"columns": ["structure.smiles.string", "metric.name", "assay.result"],
 "data": [
  ["CNC(=O)c1cc(Oc2ccc(N)cc2)ccn1", "solubility (mole fraction)", 0.000327]
]}

###

- recorded.conditions: in n-propanol, 318.15 K
metric.name: solubility (mole fraction)

{"columns": ["structure.smiles.string", "assay.result"],
 "data": [
  ["CNC(=O)c1cc(Oc2ccc(N)cc2)ccn1", 0.0398]
]}

###

- recorded.conditions: in acetonitrile, 288.15 K

{"columns": ["structure.smiles.string", "solubility (mole fraction)"],
 "data": [
  ["CNC(=O)c1cc(Oc2ccc(N)cc2)ccn1", 0.0401]
]}

###

- recorded.conditions: in n-propanol, 303.15 K
metric.name: solubility (mole fraction)

{"columns": ["structure.smiles.string", "assay.result"],
 "data": [
  ["CNC(=O)c1cc(Oc2ccc(N)cc2)ccn1", 0.0185]
]}

###

- recorded.conditions: in acetone, 298.15 K

{"columns": ["structure.smiles.string", "solubility (mole fraction)"],
 "data": [
  ["CNC(=O)c1cc(Oc2ccc(N)cc2)ccn1", 0.0616]
]}

###

- recorded.conditions: in THF, 323.15 K
metric.name: solubility (mole fraction)

{"columns": ["structure.smiles.string", "assay.result"],
 "data": [
  ["CNC(=O)c1cc(Oc2ccc(N)cc2)ccn1", 0.214]
]}

###

- recorded.conditions: in methanol, 318.15 K

{"columns": ["structure.smiles.string", "solubility (mole fraction)"],
 "data": [
  ["CNC(=O)c1cc(Oc2ccc(N)cc2)ccn1", 0.0825]
]}

###

- recorded.conditions: in THF, 298.15 K

{"columns": ["structure.smiles.string", "solubility (mole fraction)"],
 "data": [
  ["CNC(=O)c1cc(Oc2ccc(N)cc2)ccn1", 0.13]
]}

###

- recorded.conditions: in water, 313.15 K
metric.name: solubility (mole fraction)

{"columns": ["structure.smiles.string", "assay.result"],
 "data": [
  ["CNC(=O)c1cc(Oc2ccc(N)cc2)ccn1", 0.000857]
]}
